- target: VACV B5 protein (vaccinia virus, UniProt Q01227 20-275)
- test_description: purified antigen ELISA
observed_property: EC50 (µg/mL)
I only need the number, in µg/mL, no unit after it.

// solved cases for EC50 follow
{"binder": "VACV-282 (antibody, V domains shown, human IgG1, anti-B5) VH: EVQLVESGGGLVKPGGSLRLSCAASGFTFSSYSMNWVRQAPGKGLEWVSSISSISSYIYYADSVKGRFTISRDNAKNSLYLQMNSLRAEDTAVYYCARDRPRSRPNSGSYFWYYYGMDVW VL: SYELTQPPSVSVAPGQTARITCGGNNIGSKSVHWYQQKPGQAPVLVVYDDSDRPSGIPERFSGSNSGNTATLTISRVEAGDEADYYCQVWDSNSDHRVSA", "unit_descriptor": "µg/mL", "EC50": 0.155}
{"binder": "MPXV-12 (antibody, V domains shown, human IgG3, anti-B5) VH: QVQLQQWGAGLLKPSETLSLTCAVYGGSFTNYYWSWIRQFPGKGLEYIGEIDHSGSANYNPSLKSRVTISLDTSKNQFSLRLSSVTAADTAVYFCARDVYGSGTYYWFDPWGQGTL VL: DIQMTQSPTSLSASVGDRVTITCRASQRISSHLNWYQQKPGKAPKLLIYVASSLQSGVPSRFSGSGSGTDYTLTISSLQPEDFATYFCQQSYTTPYTFGQGTNLQMK", "unit_descriptor": "µg/mL", "EC50": 0.1}

Q. Which EC50 reading was recorded for the binder MPXV-43 (antibody, V domains shown, human IgG1, anti-B5) VH: QVQLVQSGAEVKKPGASVKVSCKASGYTFTKYTIHWVRQAPGQRLEWVGGIYAGYGNTRYSQKFQGRVTITRDTSASTAYMELSSLRSEDTAVYFCARDFEDFDSWTGYYSWLHWGQGTLVTVSS VL: EIVLTQSPGTLSLSPGERATLSCRASQSVSSTYLAWYQQKPGQAPRLLIYGASSRATGIPDRFSGSGSGTDFTLTITRLEPEDFAMYFCQQYDSSPSITFGQGTRLEIK ?
A. 10.1
